Test system: PC-3
Assay: Antiproliferative activity against human PC-3 cells assessed as cell growth inhibition incubated for 72 hrs by MTT assay
Type: functional
Readout Label: GI50 (µM)
Respond numerically; units are µM and should not be typed.

Per the record, COc1cc(N/N=C2\C(=O)N(c3ccc(C(=O)N4CCC(N(C)C)CC4)cc3)N=C2c2ccccc2)cc(OC)c1OC has GI50 of 5.77

For CN1CCC(NC(=O)c2cccc(N3N=C(c4ccccc4)/C(=N/Nc4ccccc4)C3=O)c2)CC1 the compound record lists GI50 as 15

Just so you know, measured GI50 for CN(C)C1CCN(C(=O)c2ccc(N3N=C(c4ccccc4)/C(=N/Nc4cccnc4)C3=O)cc2)CC1 came out at 5.17

Entry under test: O=C1/C(=N\Nc2nccs2)C(c2ccccc2)=NN1c1nc(-c2ccccc2)cs1 . Its GI50 was 14.3

Briefly, GI50 measured for CN(C)C1CCN(C(=O)c2ccc(N3N=C(c4ccccc4)/C(=N/Nc4ccc(O)cc4)C3=O)cc2)CC1 : 3.04

---

Test: Metabolic stability in human liver microsomes assessed as parent compound remaining at 100 uM incubated for 60 mins in absence of NADPH by LC-MS/MS analysis
Readout Label: remaining at 1 h, 100 µM (%)
Reply with just the number (in %).

Form: molecule = O=C1/C(=N\Nc2nccs2)C(c2ccccc2)=NN1c1nc(-c2ccccc2)cs1 ; remaining at 1 h, 100 µM = 94.2

The molecule listed as CN(C)C1CCN(C(=O)c2ccc(N3N=C(c4ccccc4)/C(=N/Nc4ccccc4)C3=O)cc2)CC1 has a reported remaining at 1 h, 100 µM of 102

---

Biological target: Cytochrome P450 2C19 (Homo sapiens, UniProt P33261)
Sequence (P33261 whole entry): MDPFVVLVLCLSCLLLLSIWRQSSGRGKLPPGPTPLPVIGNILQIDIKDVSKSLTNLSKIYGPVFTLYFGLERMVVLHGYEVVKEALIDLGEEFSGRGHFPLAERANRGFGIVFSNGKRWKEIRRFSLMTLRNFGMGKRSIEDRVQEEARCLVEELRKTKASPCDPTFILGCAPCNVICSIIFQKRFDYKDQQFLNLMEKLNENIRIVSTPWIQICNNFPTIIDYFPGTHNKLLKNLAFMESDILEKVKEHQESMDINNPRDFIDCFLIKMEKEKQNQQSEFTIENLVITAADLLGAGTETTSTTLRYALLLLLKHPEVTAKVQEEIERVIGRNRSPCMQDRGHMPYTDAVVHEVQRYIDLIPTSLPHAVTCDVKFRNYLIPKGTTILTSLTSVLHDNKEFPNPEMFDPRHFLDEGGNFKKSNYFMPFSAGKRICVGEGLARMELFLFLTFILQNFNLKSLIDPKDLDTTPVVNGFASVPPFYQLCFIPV
Experiment: Inhibition of CYP2C19 in human liver microsomes using S-mephenytoin as substrate prewarmed for 10 mins followed by NADPH addition and measured after 10 mins by LC-MS/MS analysis
Readout Label: IC50

CN(C)C1CCN(C(=O)c2ccc(N3N=C(c4ccccc4)/C(=N/Nc4ccccc4)C3=O)cc2)CC1 has a reported IC50 of > 50 µM

---

Experiment: Stability in rat plasma assessed as compound remaining measured immediately
Format: ADME, cell-free
Conditions: read-out: Stability
Readout Label: remaining at 0 min (%)
Expressed in %, but write only the number.

The measured remaining at 0 min associated with O=C1/C(=N\Nc2nccs2)C(c2ccccc2)=NN1c1nc(-c2ccccc2)cs1 reads 100

Consider CCOC(=O)[C@H](CCc1ccccc1)N[C@@H](C)C(=O)N1CCC[C@H]1C(=O)O.O=C(O)/C=C\C(=O)O [ENALAPRIL MALEATE] . Its measured remaining at 0 min is 100

Lab book: remaining at 0 min of CN(C)C1CCN(C(=O)c2ccc(N3N=C(c4ccccc4)/C(=N/Nc4ccccc4)C3=O)cc2)CC1 noted as 100

---

Assign GI50 to each entry below.
Tested on: PC-3
Assay: Antiproliferative activity against human PC-3 cells assessed as cell growth inhibition incubated for 72 hrs by MTT assay
Assay type: functional

The recorded GI50 for entry CC(C)(C)OC(=O)N1CCC2(CC1)CN(C(=O)c1ccc(N3N=C(c4ccccc4)/C(=N\Nc4ccccc4)C3=O)cc1)C2 equals 19.9 µM

The measured GI50 associated with O=C(c1ccc(N2N=C(c3ccccc3)/C(=N\Nc3ccccc3)C2=O)cc1)N1CCC(N2CCCCC2)CC1 reads 12.8 µM

Record CN(C)C1CCN(C(=O)c2ccc(N3N=C(c4ccccc4)/C(=N/Nc4ccc(OCc5ccccc5)cc4)C3=O)cc2)CC1 , field GI50: > 20 µM

Entry under test: O=C(c1ccccc1)N1CCC(C2=NN(c3nc(-c4ccccc4)cs3)C(=O)/C2=N\Nc2nccs2)CC1 . Its GI50 was > 50 µM

Notebook: CN1CCC(NC(=O)c2ccc(N3N=C(c4ccccc4)/C(=N/Nc4ccccc4)C3=O)cc2)CC1 , GI50 read as 6.45 µM
